B1: library; numbered along this chain (parent)
chain: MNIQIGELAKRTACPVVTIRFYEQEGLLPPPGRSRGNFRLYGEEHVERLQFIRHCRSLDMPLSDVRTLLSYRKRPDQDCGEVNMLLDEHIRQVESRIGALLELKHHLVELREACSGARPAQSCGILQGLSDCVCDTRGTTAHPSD

variants of: B1; assay: sfGFP reporter fluorescence (15 h) (µM FITC); higher = stronger transcriptional activation; conditions: library round: Round 1; ligand: 30 µM Zn
List of sfGFP reporter fluorescence values.
Respond numerically, and do not add a unit to the figure.

// worked examples, sfGFP reporter fluorescence included
[
  {
    "Sequence entry": "MNIQIGELAKRTACPVVTIRFYEQEGLLPPPGRSRGNFRLYGEEHVERLQFIRHCRSLDMPLSDVRTLLSYRKRPDQDCGEVSMLLDEHIRQVDSRIGALLELAHHLVELREACSGARPAQSCGILQGLSDCVCDTRGTTAHPSD [N83S E94D K104A]",
    "sfGFP reporter fluorescence": 0.422
  },
  {
    "Sequence entry": "MNIQIGELAKRTACPVVTIRFYEQEGLLPPPGCSRGNFRLYGEEHVERLQFIRHCRSLDMPLSDVRTLLSYRKRPDQDCGEVNMLLDEHIRQVESRIGALLELVHHLVELREACSGARPAQSCGILQGLSDCVCDTRGTTAHPSD [R33C K104V]",
    "sfGFP reporter fluorescence": 0.0646
  }
]

So for MNIQIGELAKRTACPVVTIRFYEQEGLLPPPGASRLNFRLYGEEHVERLQFIRHCRSLDMPLSDVRTLLSYRKRPDQDCGEVNMLLDEHIRQVESRIGALLELKHHLVELREACSGARPAQSCGILQGLSDCVCDTRGTTAHPSD [R33A G36L] , the logged sfGFP reporter fluorescence turned out to be 0.0604

So for MNIQIGELAKRTACPVVTIRFYEQEGLLPPPGRSRGNFRLYGEEHVERLQFIRHCRSLDMPLSDVRTLLSYRKRPDQDCGEVNMLLDEHIRQVESRIGALLELKHHLVELREACSGARPAQSCGILSGLSDCVCDTRGTTAHPSD [Q127S] , the logged sfGFP reporter fluorescence turned out to be 0.118

So for MNIQIGELAKRTACPVVTIRFYEQEGLLPPPGRSRGNFRLYGEEHVERLQFIRHCRSLDMPLSDVRTLLSYRKRPDQDCGEVTMLLDEHIRQVESRIGALLELKHHLVELRLACSGARPAQSCGILQGLSDCVCDTRGTTAHPSD [N83T E112L] , the logged sfGFP reporter fluorescence turned out to be 0.125
